experiment: growth suppression of beta-catenin knockout HCT116, pilot screen, human colon tumor cells (AID 823); conditions: CellTiter-Glo, 60 h, at 10 µM
Inconclusive results are not listed. The source made the active and inactive calls.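 The calls were made as follows: active = cell viability at or below a set limit in both duplicate runs, the limit being the all-compound median minus 4 SD (cut at about 23% in these data, passing the limit was not always enough); inconclusive = no clear call, values can overlap the other calls; inactive = the rest.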
Labels: active, inactive

>>> print(df.to_string())
                                    molecule  class_name
 0  COc1cc2c(cc1OC)C1=C(C#N)CC/C(=N\S(=O)(=O)c3ccccc3)N1CC2    inactive
 1  Cn1cccc1Cc1nnc(SCC(=O)NC2CCCC2)n1CCc1ccccc1    inactive
 2  CC(=O)c1ccc(NC(=O)C2CCCN2S(=O)(=O)c2ccc(F)cc2)cc1 (stereo unspecified)    inactive
 3   C=CCn1c(SCC(=C)C)nc2c1c(=O)[nH]c(=O)n2C    inactive
 4  COc1ccc(CC(=O)Nc2cc(C)c3c(=O)oc4ccccc4c3n2)cc1    inactive
 5  CCCOc1ccc(C2c3c(oc4cc(C)c(C)cc4c3=O)C(=O)N2CCCN(C)C)cc1 (stereo unspecified)    inactive
 6  CC(C)N(CCc1ccncc1)C(=O)Nc1ccc(Cl)c(Cl)c1    inactive
 7  c1ccc(N2CCN(C3CCSC3)CC2)cc1 (stereo unspecified)    inactive
 8   CCn1c(=O)c2cc(C(=O)N3CCCC3)sc2c2ccccc21    inactive
 9  O=C(Nc1cccc(F)c1)c1ccc(S(=O)(=O)N2CCOCC2)cc1    inactive
10  CCCn1c(CNS(=O)(=O)c2ccc(C)cc2)nc2ccccc21    inactive
11  Cc1ccc2cc(-c3noc(C4CCCO4)n3)c(=O)[nH]c2c1 (stereo unspecified)    inactive
12              CCC(CC)C(=O)Nc1ccccc1NC(C)=O    inactive
13  CCCCC1CCC(c2nc(-c3cccnc3)no2)CC1 (stereo unspecified)    inactive
14  Cc1ccc(S(=O)(=O)c2nc(-c3ccc(F)cc3)oc2SCC(N)=O)cc1    inactive
15  COc1ccc(S(=O)(=O)N(CC(=O)Nc2ccc3c(c2)OCO3)c2ccccc2OC)cc1    inactive
16          Cc1cccc(N2CCN(S(C)(=O)=O)CC2)c1C    inactive
17                 Cc1ccnc(Nc2nc3ccccc3o2)n1    inactive
18      Cc1cc(Nc2ncc(Cl)cc2Cl)n(-c2ccccn2)n1    inactive
19             NCCCC(=O)N1c2ccccc2Sc2ccccc21    inactive
20          CC1(C)CC(=O)C=C(NCCCNC2CCCCC2)C1    inactive
21  Clc1ccccc1C1CC(c2ccccc2)Nc2ncnn21 (stereo unspecified)    inactive
22  O=C1C2CCCN2C(c2ccc(F)cc2)N1c1cccc(Cl)c1 (stereo unspecified)    inactive
23  Cc1cc(Nc2nc3c(c(=O)n(C)c(=O)n3C)n2C)n(-c2ccc(Cl)cc2)n1    inactive
24  CCOC(=O)c1[nH]c(C)c(C(=O)Nc2ccc(C)c(C)c2)c1C    inactive
25           C=CCn1c(CCCNC(=O)CCC)nc2ccccc21    inactive
26  COC(=O)CSc1ccc2nnc(-c3ccc(OC)c(OC)c3)n2n1    inactive
27  Cc1ccc(S(=O)(=O)N2CCCC2C(=O)Nc2nc3ccccc3s2)cc1 (stereo unspecified)    inactive
28  COc1ccc(-n2nnnc2S(=O)(=O)CC(=O)N2CCCCC2)cc1      active
29           COc1cccc(C(=O)NCc2cn3ccsc3n2)c1    inactive
30  CCOC(=O)c1[nH]c2ccccc2c1NC(=O)c1ccc(Br)o1    inactive
31  O=C(Nc1c(C(=O)N2CCCC2)cnn1-c1ccccc1)c1cccc(F)c1    inactive
32  Cc1ccc2c(c1)C(c1ccccc1)N(C(=O)C(C)C)CC(=O)N2 (stereo unspecified)    inactive
33         COc1ccc(C(=O)c2c[nH]c3ccccc23)cc1    inactive
34                 O/N=C(/Cc1ccccn1)c1ccccc1    inactive
35  Cc1ccc(Cl)cc1N1CCN(C(=O)c2cc3c(=O)n(C)c4ccccc4c3n2C)CC1      active
36  CCOC(=O)c1c(C)n(C)c2cc(Br)c(C(=O)OC)cc12    inactive
37  CCN(CC)S(=O)(=O)c1ccc2c3c(cccc13)C(=O)N2    inactive
38  Cc1nc2sc(C(c3ccco3)N3CCN(c4ccc(F)cc4)CC3)c(O)n2n1 (stereo unspecified)    inactive
39  NC(=O)CSc1nnc(Cn2c(=O)sc3ccccc32)n1CCc1ccccc1    inactive
40      Cc1ccccc1NC(=O)CCN1CCN(Cc2ccccc2)CC1    inactive
41        C=C(C)Cn1c(CCCNC(=O)CCC)nc2ccccc21    inactive
42  CCOc1ccc(NC(=O)CSc2nc3c(c(=O)n2C)SC(C)C3)cc1 (stereo unspecified)    inactive
43  CC1=C(C(=O)OC2CCCCCCC2)C(c2ccc(O)cc2)NC(=O)N1 (stereo unspecified)    inactive
44  CC(=O)Nc1nc2n(n1)C(c1ccccc1)C=C(c1ccccc1)N2 (stereo unspecified)    inactive
45  Cc1nc2c3c4c(sc3n3c(SCC(=O)NCc5ccco5)nnc3n2n1)COC(C)(C)C4    inactive
